Provide the reported pIC50 of each item.
molecular target: human JAK3 (a.a. 781-1124) (Homo sapiens, UniProt P52333); construct: JAK3 (a.a. 781-1124); His tag (N); made in house; host or cells: insect cells (baculovirus); experiment: In vitro JAK kinase assay (HTRF, phosphorylation of a biotinylated peptide), JAK3; format: biochemical; details: Table D1
Sequence (P52333 781-1124): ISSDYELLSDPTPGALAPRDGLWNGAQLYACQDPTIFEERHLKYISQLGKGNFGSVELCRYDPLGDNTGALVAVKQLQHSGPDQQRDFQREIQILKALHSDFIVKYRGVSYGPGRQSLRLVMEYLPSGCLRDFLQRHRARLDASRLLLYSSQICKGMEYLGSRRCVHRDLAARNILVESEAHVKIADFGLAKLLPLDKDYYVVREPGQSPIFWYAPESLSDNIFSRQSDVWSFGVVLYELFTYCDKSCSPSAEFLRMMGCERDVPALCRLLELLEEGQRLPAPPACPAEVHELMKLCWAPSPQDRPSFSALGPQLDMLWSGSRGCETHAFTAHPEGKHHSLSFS
Structures can show the parent of a compound that is named as a salt.
Answers are plain numbers, as −log10 of the molar value.

Clc1cnc2nc1Nc1cccc(c1)OCCc1cccc(c1)N2 [Example D8, trifluoroacetate] :: 7.89
O=C(Nc1cc2cc(c1)OCCSc1cccc(c1)Nc1nc(ncc1Cl)N2)c1cccs1 [Example D63, trifluoroacetate] :: 7.72

Now examine the next entry.
# input What does the record list as pIC50 for Cc1nc(S(=O)(=O)Nc2cc3cc(c2)OCCSc2cccc(c2)Nc2nc(ncc2Cl)N3)cn1C [Example D69, bis(trifluoroacetate)] ?
# output 8.07

###

target: human JAK2 (a.a. 828-1132) (Homo sapiens, UniProt O60674); construct: JAK2 (a.a. 828-1132); His tag (N); made in house; host or cells: insect cells (baculovirus); experiment: In vitro JAK kinase assay (HTRF, phosphorylation of a biotinylated peptide), JAK2; format: biochemical; conditions: Table B1
Sequence (O60674 828-1132): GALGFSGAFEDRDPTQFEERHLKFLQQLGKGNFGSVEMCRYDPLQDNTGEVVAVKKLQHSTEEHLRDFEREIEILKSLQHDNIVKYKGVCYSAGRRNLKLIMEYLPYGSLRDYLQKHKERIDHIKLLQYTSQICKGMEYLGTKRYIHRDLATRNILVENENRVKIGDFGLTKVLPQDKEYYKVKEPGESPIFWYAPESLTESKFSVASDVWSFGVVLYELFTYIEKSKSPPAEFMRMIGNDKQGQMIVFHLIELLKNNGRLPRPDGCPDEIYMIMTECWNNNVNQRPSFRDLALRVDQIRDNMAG
Counter-ions that a name gives are not always drawn.
measuredMetric: pIC50
Numbers only, as −log10 of the molar value.

O=C(c1cc2cc(c1)Nc1nc(ncc1Cl)Nc1cccc(c1)CC2)N1CCCC(O)C1 (stereo not drawn) [Example B12, trifluoroacetate] :: 6.95
Cc1cccc(S(=O)(=O)Nc2ccc3cc2CCc2cccc(c2)Nc2ncc(Cl)c(n2)N3)c1 [Example B148, trifluoroacetate] :: 9.89
O=C(Nc1ccc2cc1CCc1cccc(c1)Nc1ncc(Cl)c(n1)N2)c1cccc(C(F)(F)F)c1 [Example B76, trifluoroacetate] :: 7.85
COc1ccc(S(=O)(=O)Nc2ccc3cc2CCc2cccc(c2)Nc2ncc(Cl)c(n2)N3)cc1 [Example B156, trifluoroacetate] :: 8.82
O=C(Nc1ccc2cc1CCc1cccc(c1)Nc1ncc(Cl)c(n1)N2)c1cccc(Cl)c1 [Example B42, hydrochloride] :: 9.12
CC(C)(C)c1ccccc1NC(=O)Nc1ccc2cc1CCc1cccc(c1)Nc1ncc(Cl)c(n1)N2 [Example B110, trifluoroacetate] :: 8.28
Cc1cc(C(=O)Nc2cc3cc(c2)Nc2nc(ncc2Cl)Nc2cccc(c2)CC3)no1 [Example B205, trifluoroacetate] :: 6.84
O=C(NCc1ccco1)Nc1ccc2cc1CCc1cccc(c1)Nc1ncc(Cl)c(n1)N2 [Example B117, trifluoroacetate] :: 8.55

Need pIC50 for each of these compounds.
1. O=C(Nc1ccc2cc1CCc1cccc(c1)Nc1ncc(Cl)c(n1)N2)c1cccnc1 [Example B30, bis(trifluoroacetate)]
2. N#CNC(=O)Nc1ccc2cc1CCc1cccc(c1)Nc1ncc(Cl)c(n1)N2 [Example B323, trifluoroacetate]
3. CN(C(=O)Nc1ccc2cc1CCc1cccc(c1)Nc1ncc(Cl)c(n1)N2)[C@H]1CCN(Cc2ccccc2)C1

# output
9.11
7.85
6.78

Need pIC50 for each of these compounds.
1. COCCNC(=O)Nc1ccc2cc1CCc1cccc(c1)Nc1ncc(Cl)c(n1)N2 [Example B243, trifluoroacetate]
2. CC(C)(C)OC(=O)N1CCCC(NC(=O)Nc2ccc3cc2CCc2cccc(c2)Nc2ncc(Cl)c(n2)N3)C1 (stereo not drawn)
3. O=C(Nc1ccc2cc1CCc1cncc(c1)Nc1ncc(Cl)c(n1)N2)N1CCN(c2ncccn2)CC1 [Example B309, tris(trifluoroacetate)]
4. Cc1csc(NC(=O)Nc2ccc3cc2CCc2cccc(c2)Nc2ncc(Cl)c(n2)N3)c1 [Example B120, trifluoroacetate]
5. CN(Cc1ccc2cc1CCc1cncc(c1)Nc1ncc(Cl)c(n1)N2)CC1CCN(C(=O)c2ccno2)CC1 [Example B345, tris(trifluoroacetate)]

# output
[8.82, 7.74, 6.88, 8.10, 6.75]

Need pIC50 for each of these compounds.
1. O=C(Nc1cccc(Cl)c1)Nc1ccc2cc1CCc1cccc(c1)Nc1ncc(Cl)c(n1)N2 [Example B85, trifluoroacetate]
2. CC(C)C(=O)N1CC[C@H](NC(=O)Nc2ccc3cc2CCc2cccc(c2)Nc2ncc(Cl)c(n2)N3)C1 [Example B229, trifluoroacetate]
3. O=C(Nc1ccc2cc1CCc1cccc(c1)Nc1ncc(Cl)c(n1)N2)c1cnccn1 [Example B44, bis(trifluoroacetate)]
4. Clc1cnc2nc1Nc1ccc(CN[C@H]3CCNC3)c(c1)CCc1cccc(c1)N2 [Example B223, tris(trifluoroacetate)]
5. Cc1cnc2nc1Nc1cccc(c1)/C=C\c1cccc(c1)N2 [Example B1, trifluoroacetate]
6. CC(C)(C)OC(=O)N1CCC(NC(=O)Nc2ccc3cc2CCc2cccc(c2)Nc2ncc(Cl)c(n2)N3)CC1
7. CC(=O)N1CCC(CN(C)Cc2ccc3cc2CCc2cncc(c2)Nc2ncc(Cl)c(n2)N3)CC1 [Example B346, tris(trifluoroacetate)]
8. O=C(Nc1ccc2cc1CCc1cncc(c1)Nc1ncc(Cl)c(n1)N2)N1CCN(c2ccccc2Cl)CC1 [Example B305, bis(trifluoroacetate)]

# output
1. 8.57
2. 7.77
3. 8.54
4. 8.13
5. 8.29
6. 7.01
7. 7.04
8. 6.83

# input What does the record list as pIC50 for CN(C)C(=O)Nc1ccc2cc1CCc1cccc(c1)Nc1ncc(Cl)c(n1)N2 [Example B239, trifluoroacetate] ?
# output 8.05

###

target: human JAK2 (a.a. 828-1132) (Homo sapiens, UniProt O60674); construct: JAK2 (a.a. 828-1132); His tag (N); made in house; host or cells: insect cells (baculovirus); test: In vitro JAK kinase assay (HTRF, phosphorylation of a biotinylated peptide), JAK2; assay type: biochemical; settings: Table D1
Counter-ions that a name gives are not always drawn.
measuredMetric: pIC50
Numbers only, as −log10 of the molar value.

CN1c2cccc(c2)OCCc2cccc(c2)Nc2ncc(Cl)c1n2 [Example D9, trifluoroacetate] :: 7.33

Need pIC50 for each of these compounds.
1. N#Cc1cccc(NC(=O)N2CC[C@@H](CC(=O)Nc3ccc4cc3CCc3cncc(c3)Nc3ncc(Cl)c(n3)N4)C2)c1 [Example D115, bis(trifluoroacetate)]
2. CN1c2cccc(c2)CCc2cccc(c2)Nc2nccc1n2 [Example D223, trifluoroacetate]
3. Clc1cnc2nc1Nc1ccc(N3CCNCC3)c(c1)CCc1cccc(c1)N2 [Example D83, bis(trifluoroacetate)]
4. Cc1oncc1C(=O)N1CC[C@H](CC(=O)Nc2ccc3cc2CCc2cncc(c2)Nc2ncc(Cl)c(n2)N3)C1 [Example D108, bis(trifluoroacetate)]
5. N#Cc1cccc(NC(=O)N2CCN(c3ccc4cc3CCc3cccc(c3)Nc3ncc(Cl)c(n3)N4)CC2)c1 [Example D89, bis(trifluoroacetate)]

# output
1. 6.79
2. 6.97
3. 7.59
4. 6.61
5. 8.17

###

Provide the reported IC50 of each item.
target: TYK2 (Homo sapiens); assay: TYK2 kinase inhibition (Table A1); assay type: biochemical; conditions: Table B1
Sequence (P29597 whole entry): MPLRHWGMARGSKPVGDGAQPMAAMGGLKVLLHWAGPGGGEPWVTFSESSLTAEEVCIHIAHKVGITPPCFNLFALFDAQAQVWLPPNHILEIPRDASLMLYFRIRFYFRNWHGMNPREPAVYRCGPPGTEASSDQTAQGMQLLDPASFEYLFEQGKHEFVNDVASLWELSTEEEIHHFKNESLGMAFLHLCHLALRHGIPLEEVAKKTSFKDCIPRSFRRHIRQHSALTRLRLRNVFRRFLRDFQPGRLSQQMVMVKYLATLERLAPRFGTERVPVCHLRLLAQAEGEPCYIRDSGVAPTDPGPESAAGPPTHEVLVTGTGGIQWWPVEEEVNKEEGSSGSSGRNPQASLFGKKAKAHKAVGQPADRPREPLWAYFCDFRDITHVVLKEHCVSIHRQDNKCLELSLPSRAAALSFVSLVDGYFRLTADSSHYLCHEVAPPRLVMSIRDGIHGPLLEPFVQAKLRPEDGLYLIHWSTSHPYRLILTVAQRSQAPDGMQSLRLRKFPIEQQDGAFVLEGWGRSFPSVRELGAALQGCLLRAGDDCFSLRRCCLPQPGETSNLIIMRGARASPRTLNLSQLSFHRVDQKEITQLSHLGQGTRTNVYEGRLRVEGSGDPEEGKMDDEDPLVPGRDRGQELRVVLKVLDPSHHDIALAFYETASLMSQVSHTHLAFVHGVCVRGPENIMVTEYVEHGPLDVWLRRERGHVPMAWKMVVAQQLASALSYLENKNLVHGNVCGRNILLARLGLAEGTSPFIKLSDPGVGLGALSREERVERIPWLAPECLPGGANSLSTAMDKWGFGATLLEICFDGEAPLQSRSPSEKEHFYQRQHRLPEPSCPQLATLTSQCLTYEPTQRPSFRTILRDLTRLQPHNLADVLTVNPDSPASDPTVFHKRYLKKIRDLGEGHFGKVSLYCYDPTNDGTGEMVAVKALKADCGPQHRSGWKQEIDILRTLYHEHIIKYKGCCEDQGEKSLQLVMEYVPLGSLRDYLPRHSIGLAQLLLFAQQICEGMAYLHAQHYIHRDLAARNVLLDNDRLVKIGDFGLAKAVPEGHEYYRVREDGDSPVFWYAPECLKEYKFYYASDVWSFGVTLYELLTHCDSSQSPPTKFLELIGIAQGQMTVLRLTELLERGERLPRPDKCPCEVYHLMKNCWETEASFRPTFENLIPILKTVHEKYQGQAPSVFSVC
Counter-ions that a name gives are not always drawn.
Answers are plain numbers, in nM.

# annotated cases, reported IC50 shown
O=C(Nc1ccc(Cl)nc1)Nc1ccc2cc1CCc1cccc(c1)Nc1ncc(Cl)c(n1)N2 [Example B121, bis(trifluoroacetate)] :: 19
OCc1cc2cc(c1)Nc1nc(ncc1Cl)Nc1cccc(c1)CC2 [Example B24, trifluoroacetate] :: 18

Need IC50 for each of these molecules.
1. CS(=O)(=O)N1CCN(C(=O)Nc2ccc3cc2CCc2cncc(c2)Nc2ncc(Cl)c(n2)N3)CC1 [Example B318, bis(trifluoroacetate)]
2. CN1CCOc2cc(S(=O)(=O)Nc3ccc4cc3CCc3cccc(c3)Nc3ncc(Cl)c(n3)N4)ccc21 [Example B165, trifluoroacetate]
3. CC(C)(C)OC(=O)N[C@@H]1CCN(C(=O)Nc2ccc3cc2CCc2cccc(c2)Nc2ncc(Cl)c(n2)N3)C1
4. Clc1ccc(CN2CCN(Cc3cc4cc(c3)Nc3nc(ncc3Cl)Nc3cccc(c3)CC4)CC2)cc1 [Example B199, tris(trifluoroacetate)]

# output
1: 70; 2: 20; 3: 6.1; 4: 154

###

molecular target: human JAK1 (a.a. 837-1142) (Homo sapiens, UniProt P23458); construct: human JAK1 (a.a. 837-1142); His tag (N); made in house; host or cells: insect cells (baculovirus); assay: In vitro JAK kinase assay (HTRF, phosphorylation of a biotinylated peptide), JAK1; format: biochemical; conditions: Table B1; read-out: JAK1 IC50
Sequence (P23458 849-1154): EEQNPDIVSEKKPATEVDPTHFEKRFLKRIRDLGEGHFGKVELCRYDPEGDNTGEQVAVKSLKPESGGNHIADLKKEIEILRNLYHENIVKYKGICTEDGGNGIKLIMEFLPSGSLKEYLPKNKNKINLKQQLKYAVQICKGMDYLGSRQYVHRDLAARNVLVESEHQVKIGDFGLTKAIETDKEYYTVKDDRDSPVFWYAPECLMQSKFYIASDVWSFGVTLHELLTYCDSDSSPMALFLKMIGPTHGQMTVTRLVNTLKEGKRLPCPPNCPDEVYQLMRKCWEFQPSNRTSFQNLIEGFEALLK
Counter-ions that a name gives are not always drawn.
IC50 under 0.008 µM gets Satisfied, anything at or over 0.008 µM gets Not satisfied.

Consider the following illustrative entries.
O=C(Nc1ccc2cc1CCc1cncc(c1)Nc1ncc(Cl)c(n1)N2)N1CCN(c2ncc(C(F)(F)F)cc2Cl)CC1 [Example B302, tris(trifluoroacetate)] :: Not satisfied
O=C(Nc1cccc(N2CCOCC2)n1)Nc1ccc2cc1CCc1cccc(c1)Nc1ncc(Cl)c(n1)N2 [Example B133, bis(trifluoroacetate)] :: Not satisfied
CC(C)(C)NS(=O)(=O)c1cc2cc(c1)Nc1nc(ncc1Br)Nc1cccc(c1)CC2 [Example B17, trifluoroacetate] :: Not satisfied
O=C(Nc1cc2cc(c1)Nc1nc(ncc1Cl)Nc1cccc(c1)CC2)Nc1ccccc1F [Example B213, trifluoroacetate] :: Not satisfied

# input Find out if reported IC50 for Cn1ccc(C(=O)Nc2cc3cc(c2)Nc2nc(ncc2Cl)Nc2cccc(c2)CC3)n1 [Example B207, trifluoroacetate] is less than 0.008 µM
# output Not satisfied

# input Find out if reported IC50 for Cc1ccccc1C(=O)Nc1ccc2cc1CCc1cccc(c1)Nc1ncc(Cl)c(n1)N2 [Example B35, trifluoroacetate] is less than 0.008 µM
# output Satisfied

# input Find out if reported IC50 for CC(CO)NC(=O)Nc1ccc2cc1CCc1cccc(c1)Nc1ncc(Cl)c(n1)N2 (centres unmarked) [Example B242, trifluoroacetate] is less than 0.008 µM
# output Satisfied

# input Find out if reported IC50 for CS(=O)(=O)N1CC[C@H](NC(=O)Nc2ccc3cc2CCc2cccc(c2)Nc2ncc(Cl)c(n2)N3)C1 [Example B172, trifluoroacetate] is less than 0.008 µM
# output Satisfied

# input Find out if reported IC50 for COC(=O)c1cc2cc(c1)Nc1nc(ncc1Cl)Nc1cccc(c1)CC2 [Example B5, trifluoroacetate] is less than 0.008 µM
# output Not satisfied

# input Find out if reported IC50 for CN(C)S(=O)(=O)NCCNC(=O)Nc1ccc2cc1CCc1cccc(c1)Nc1ncc(Cl)c(n1)N2 [Example B328, trifluoroacetate] is less than 0.008 µM
# output Not satisfied

# input Find out if reported IC50 for N#Cc1ccccc1S(=O)(=O)Nc1cc2cc(c1)Nc1nc(ncc1Cl)Nc1cccc(c1)CC2 [Example B216, trifluoroacetate] is less than 0.008 µM
# output Not satisfied

# input Find out if reported IC50 for O=C(Nc1ccc2cc1CCc1cccc(c1)Nc1ncc(Cl)c(n1)N2)Nc1cccc2c1CCCC2 [Example B109, trifluoroacetate] is less than 0.008 µM
# output Not satisfied

# input Find out if reported IC50 for O=C(Nc1ccc2cc1CCc1cccc(c1)Nc1ncc(Cl)c(n1)N2)N1CCCC1 [Example B81, trifluoroacetate] is less than 0.008 µM
# output Not satisfied

# input Find out if reported IC50 for O=C(Nc1ccc2cc1CCc1cccc(c1)Nc1ncc(Cl)c(n1)N2)Nc1ccccc1-c1ccccc1 [Example B130, trifluoroacetate] is less than 0.008 µM
# output Not satisfied

# input Find out if reported IC50 for Cn1ccc(C(=O)N2CC[C@H](NC(=O)Nc3ccc4cc3CCc3cncc(c3)Nc3ncc(Cl)c(n3)N4)C2)n1 [Example B272, bis(trifluoroacetate)] is less than 0.008 µM
# output Not satisfied

# input Find out if reported IC50 for O=C(O)c1cccc(S(=O)(=O)Nc2ccc3cc2CCc2cccc(c2)Nc2ncc(Cl)c(n2)N3)c1 [Example B159, trifluoroacetate] is less than 0.008 µM
# output Satisfied

# input Find out if reported IC50 for CC(C)c1ccccc1NC(=O)Nc1ccc2cc1CCc1cccc(c1)Nc1ncc(Cl)c(n1)N2 [Example B104, trifluoroacetate] is less than 0.008 µM
# output Satisfied

# input Find out if reported IC50 for O=C(Nc1ccc(F)c(Cl)c1)c1cc2cc(c1)Nc1nc(ncc1Cl)Nc1cccc(c1)CC2 [Example B7, trifluoroacetate] is less than 0.008 µM
# output Not satisfied

Where do these numbers come from? They come from patent US8871753B2.
